# TEST_PROTOCOL: inhibition of 3D7 malaria parasite growth – strain 3D7 (AID 2306);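 further: 0% = DMSO wells and 100% = chloroquine plus artemisinin control wells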
# MEASUREMENT_PARAMETERS: P. falciparum 3D7 erythrocytic growth, LDH absorbance, 72 h; at 2 µM; hits give high values
RESULT_TYPE: growth inhibition (%)
The answer is to be given in %; state only the numeric part.

Tell me growth inhibition reported for c1ccc(-c2ccc(-c3csc(Nc4ccncc4)n3)cc2)cc1
101

Tell me growth inhibition reported for NC(=O)c1cccc(Nc2nccc(Nc3ccc(Oc4ccc5ccccc5c4)cc3)n2)c1
96

* * *

# TEST_PROTOCOL: inhibition of 3D7 malaria parasite growth – strain 3D7 (AID 2306);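 further: 0% = DMSO wells and 100% = chloroquine plus artemisinin control wells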
# MEASUREMENT_PARAMETERS: P. falciparum 3D7 erythrocytic growth, LDH absorbance, 72 h; at 2 µM; hits give high values
RESULT_TYPE: growth inhibition (%)
Numeric answer only, unit % assumed.

// Input: CCOC(=O)c1cn(CC)c2cc(OCc3ccccc3)ccc2c1=O . Output its growth inhibition only.
97

Please report the measured growth inhibition for CS(=O)(=O)c1ccc(CNCc2ccc(-c3cccc(-c4nc5ccc(F)cc5[nH]4)c3)cc2)cc1
102

Please give measured growth inhibition of the following entry: COc1ccccc1N1CCN(C(C(=O)NCc2ccc3c(c2)OCO3)c2ccc(C)cc2)CC1 (stereo not given)
85

State its growth inhibition for this compound: COc1ccccc1CNc1ccnc(NCCc2cccc(C(F)(F)F)c2)n1
93

Fill in reported growth inhibition for this entry: C=CCc1ccccc1OCC(O)CN(C1CCCCC1)C1CCCCC1 (stereo not given)
93

* * *

# TEST_PROTOCOL: antimalarial activity against Dd2 strain (AID 2302);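 further: 0% = DMSO untreated growth and 100% = chloroquine plus artemisinin killed control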
# MEASUREMENT_PARAMETERS: P. falciparum Dd2 in RBCs, LDH growth readout, 72 h; at 2 µM; hits give high values
Measured growth inhibition by item
Lab book: enter the figure in %, no units written.

These solved cases illustrate the format of a correct answer.
{"columns": ["ENTRY_SMILES", "growth inhibition / %"],
 "data": [
  ["CCOC(=O)c1ccc(NC(=O)Nc2cccc(-c3ccc(-c4nc5ccccc5[nH]4)cc3)c2)cc1", 86],
  ["Oc1ccc(CCNCCCCCCNCCc2ccc(Cl)c3ccccc23)cc1O", 1],
  ["O=C(c1cc(-c2cccs2)[nH]n1)N1CCN(S(=O)(=O)c2ccc(Br)cc2)CC1", 95],
  ["O=[N+]([O-])c1ccc(C=NNc2nc3ccccc3[nH]2)cc1", 98]
]}

Report growth inhibition for Cc1ccc(Nc2nc(-c3ccccn3)cs2)nc1
97

* * *

# TEST_PROTOCOL: inhibition of 3D7 malaria parasite growth – strain 3D7 (AID 2306);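 further: 0% = DMSO wells and 100% = chloroquine plus artemisinin control wells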
# MEASUREMENT_PARAMETERS: P. falciparum 3D7 erythrocytic growth, LDH absorbance, 72 h; at 2 µM; hits give high values
Active and inactive are the calls of the source. How the calls were made is not given here.
RESULT_TYPE: growth inhibition

{"columns": ["MOLECULE", "growth inhibition"],
 "data": [
  ["COc1cc2ccccc2cc1OCCCN1CCN(CC(c2ccc(F)cc2)N2CCN(C(C)C)CC2)CC1 (centres undefined)", "100% (active)"]
]}

Supply measured growth inhibition of COCCNCc1nc(-c2ccc3c(Nc4ccc(Cl)cc4F)ccnc3c2)cs1 in your reply.
101% (active)

Give growth inhibition for the following molecule: Cc1cccc2[nH]c(-c3ccc(-c4cccc(CNCCCN5CCCC5=O)c4)cc3)nc12
96% (active)

Return the recorded growth inhibition value; entry: COc1ccc(Br)cc1/C=C/C(=O)Nc1cccc(C2CCCN(C)C2)c1 (centres undefined)
99% (active)

State its growth inhibition for this molecule: O[C@@H](c1cccc2ccccc12)[C@@H]1CN(CCc2ccccc2)CC[C@@]1(O)c1ccccc1
99% (active)

Provide one value: measured growth inhibition of COc1ccc(S(=O)(=O)N2CCCc3ccc(Br)cc32)cc1N1CCN(C(=O)C(Cl)(Cl)Cl)CC1
97% (active)

Using the record for Cc1c(O)cccc1Nc1ccnc2ccc(C(F)(F)F)cc12 , state its measured growth inhibition.
96% (active)

// Input: COc1ccc(OC)c2c1CCN(C)C2Cc1cccc2ccccc12 (centres undefined) . Output its growth inhibition only.
91% (active)

Give me measured growth inhibition, please, for this molecule: CC(C)(CNCc1cccc(Oc2ccccc2)c1)c1nc(-c2ccc(Cl)c(O)c2)c(-c2ccnc(N)n2)[nH]1
97% (active)

* * *

Quick reference for inhibition among some compounds
# TESTED_ON: L-lactate dehydrogenase (Plasmodium falciparum (isolate CDC / Honduras))
# TEST_PROTOCOL: PfLDH activity inhibition – cell lysate, 3D7 strain, counter-screen for P. falciparum growth inhibition project (AID 2304);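 further: 0% = vehicle and 100% = reference inhibitor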
# MEASUREMENT_PARAMETERS: P. falciparum 3D7 crude extract, LDH APAD/NBT absorbance; at 2 µM; hits give high values
Express your answer in %, writing the number without its unit.

Here's what some known entries look like.
{"columns": ["ENTRY_SMILES", "READING_UNIT", "inhibition"],
 "data": [
  ["Cc1nc(-c2ccc(-c3ccc(C(=O)Nc4ccc(I)c(OCCN5CCCC5)c4)cc3)c(C)c2)no1", "%", -1],
  ["CCCCCCCCc1c(C)[nH]c(C)c(C#N)c1=O", "%", 4],
  ["Cc1cccc2[nH]c(-c3ccc(-c4cccc(C(=O)NCCN5CCCC5)c4)s3)nc12", "%", 4],
  ["O=C1CCCN1CCCNCc1cccc(-c2cccc(-c3nc4ccc(C(F)(F)F)cc4[nH]3)c2)c1", "%", -3]
]}

Supply recorded inhibition for Cc1[nH]c(C)c(-c2ccc(-c3ccccc3F)nc2)c(=O)c1Cl here.
6

Supply recorded inhibition for CCCCc1cc(NCc2ccncc2)nc(Nc2ccc(C)cc2)n1 here.
-4

Tell us which inhibition value is on record for c1cc(CN2CCCCC2)cc(-c2cccc(-c3nc4ccccc4[nH]3)c2)c1
0

* * *

# TEST_PROTOCOL: antimalarial activity against Dd2 strain (AID 2302);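 further: 0% = DMSO untreated growth and 100% = chloroquine plus artemisinin killed control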
# MEASUREMENT_PARAMETERS: P. falciparum Dd2 in RBCs, LDH growth readout, 72 h; at 2 µM; hits give high values
Would you please tag the item t when its growth inhibition is 70% or above, and f when it is below?

Solved cases (5 shown):
{"columns": ["MOLECULE", "CLASS_NAME"],
 "data": [
  ["O=[N+]([O-])c1ccc(Nc2nc(NN=Cc3ccc(-c4ccc([N+](=O)[O-])cc4)o3)nc(Nc3ccccc3)n2)cc1", "t"],
  ["CC(C)COc1ccc(Cl)cc1Cc1nc(-c2nc3ccc(CN(C)C)cc3[nH]2)co1", "t"],
  ["Cc1nc(-c2ccc(-c3ccc(C(=O)Nc4ccc(I)c(OCCN5CCCC5)c4)cc3)c(C)c2)no1", "f"],
  ["COc1ccc(Nc2ncc3c(-c4cccc(NC(=O)c5ccc(N)cc5)c4)c[nH]c3n2)cc1OC", "f"],
  ["Cc1cc(C)n(-c2nc(Nc3cccc(C(F)(F)F)c3)nc(-n3nc(C)cc3C)n2)n1", "t"]
]}

Then this molecule:
Given O=C(NC1CCN(CCC[C@]2(c3ccc(Cl)c(Cl)c3)CCCN(C(=O)c3ccccc3)C2)CC1)c1ccc(Cl)cc1 , state whether its growth inhibition is at least 70%.
f

* * *

# TEST_PROTOCOL: inhibition of 3D7 malaria parasite growth – strain 3D7 (AID 2306);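 further: 0% = DMSO wells and 100% = chloroquine plus artemisinin control wells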
# MEASUREMENT_PARAMETERS: P. falciparum 3D7 erythrocytic growth, LDH absorbance, 72 h; at 2 µM; hits give high values
# maps each entry to its growth inhibition
Reply numerically in %, unit not repeated.

Here are 2 compounds together with their reported answers.
{"columns": ["COMPOUND", "READING_UNIT", "growth inhibition"],
 "data": [
  ["CCc1ccc(CN2CCC(NC(=O)c3ccc(-c4ccc(N(C)C)cc4)s3)CC2)cc1", "%", 84],
  ["Cc1cccc2[nH]c(-c3ccc(-c4cccc(NC(=O)C(C)CN(C)C)c4)s3)nc12 (stereo not given)", "%", 92]
]}

Return reported growth inhibition. Input compound: O=C(Nc1ccc2c(c1)CCNCC2)c1ccc(-c2ccc(Cl)cc2)cc1
96

* * *

growth inhibition overview
# TEST_PROTOCOL: antimalarial activity against Dd2 strain (AID 2302);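 further: 0% = DMSO untreated growth and 100% = chloroquine plus artemisinin killed control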
# MEASUREMENT_PARAMETERS: P. falciparum Dd2 in RBCs, LDH growth readout, 72 h; at 2 µM; hits give high values
Output spec: scalar in %, unitless text.

{"columns": ["MOLECULE", "growth inhibition (%)"],
 "data": [
  ["CN(C)CCOc1ccc(-c2cc(-c3ccc(Cl)c(O)c3)c(-c3ccncc3)o2)cc1", 99],
  ["OC(CNc1ccnc(Nc2cccc(OCCCN3CCOCC3)c2)n1)c1ccccc1 (stereo not drawn)", 25],
  ["Cc1cccc2[nH]c(-c3cccc(-c4cccc(NC(=O)N[C@@H]5C[C@H]5c5ccccc5)c4)c3)nc12", 28],
  ["NCc1ccc(CNCc2cccc(-c3ccc(-c4nc5ccc(C(F)(F)F)cc5[nH]4)cc3)c2)cc1", 90],
  ["CC(C)N1CCC(N(Cc2ccc(-c3ccc(C(F)(F)F)cc3)cc2)C(=O)Cn2c(CCc3cccc(F)c3F)cc(=O)c3c2CCC3)CC1", 62],
  ["CCC(C)NC(=O)CN1CN(c2ccccc2)C2(CCN(C(=O)c3ccc(C(C)(C)C)cc3)CC2)C1=O (stereo not drawn)", 100]
]}

Now consider the entry below.
Provide growth inhibition value for the following molecule: Cc1ccc(N2C(=O)C3C(C2=O)[C@]2(c4ccccc4)C(=O)[C@@]3(c3ccccc3)C(c3ccccc3)=C2c2ccccc2)c(C)c1 (stereo partly drawn)
96
